assay_procedure: soluble on expression in E. coli; label from the status in PepcDB or PDB records
measured_quantity: soluble on expression in E. coli

MSNYPLHQACMENEFFKVQELLHSKPSLLLQKDQDGRIPLHWSVSFQAHEITSFLLSKMENVNLDDYPDDSGWTPFHIACSVGNLEVVKSLYDRPLKPDLNKITNQGVTCLHLAVGKKWFEVSQFLIENGASVRIKDKFNQIPLHRAASVGSLKLIELLCGLGKSAVNWQDKQGWTPLFHALAEGHGDAAVLLVEKYGAEYDLVDNKGAKAEDVALNEQVKKFFLNNVVDKLAAALEHHHHHH	soluble
MESIFHEKQEGSLCAQHCLNNLLQGEYFSPVELSSIAHQLDEEERMRMAEGGVTSEDYRTFLQQPSGNMDDSGFFSIQVISNALKVWGLELILFNSPEYQRLRIDPINERSFICNYKEHWFTVRKLGKQWFNLNSLLTGPELISDTYLALFLAQLQQEGYSIFVVKGDLPDCEADQLLQMIR	soluble
